tgt: Ionotropic glutamate receptor NMDA 1/2D (Rattus norvegicus, UniProt P35439+Q62645)
assay.details: Activity at rat NR1/NR2D receptor expressed in Xenopus oocytes assessed as effect on glutamate-induced current by two voltage clamp electrophysiology
readout.kind: EC50 (µM)
One number for each entry, in µM.

# example entries with known answers
>  <compound>
NC(C(=O)O)c1c(Cl)cnn1O (racemic)

>  <result.units>
µM

>  <EC50>
152

$$$$
>  <compound>
CCc1cnn(O)c1C(N)C(=O)O (racemic)

>  <result.units>
µM

>  <EC50>
43

$$$$
>  <compound>
CCCc1cnn(O)c1C(N)C(=O)O (racemic)

>  <result.units>
µM

>  <EC50>
153

$$$$

Then this compound:
Task: Query (compound): CN[C@H](CC(=O)O)C(=O)O ; field requested: EC50
Result: 8.3

* * *

tgt: Glutamate NMDA receptor; Grin1/Grin2b (Rattus norvegicus) (UniProt P35439+Q00960)
assay.details: Activity at rat recombinant NR1/NR2B receptor expressed in Xenopus oocytes by two voltage clamp electrophysiology relative to glutamate
Type: cell-based
condition.set: Oocyte
readout.kind: Imax
Numbers only.

# example entries with known answers
>  <molecule>
CCCc1cnn(O)c1[C@@H](N)C(=O)O

>  <Imax>
0.09

$$$$
>  <molecule>
CN[C@H](CC(=O)O)C(=O)O

>  <Imax>
0.77

$$$$
>  <molecule>
N[C@@H](C(=O)O)c1ccnn1O

>  <Imax>
0.61

$$$$
>  <molecule>
NC(C(=O)O)c1ccnn1O (racemic)

>  <Imax>
0.58

$$$$
>  <molecule>
CCc1cnn(O)c1C(N)C(=O)O (racemic)

>  <Imax>
0.45

$$$$

Please give Imax, item by item, for the list that follows.
1. CCc1cnn(O)c1[C@@H](N)C(=O)O
2. N[C@@H](C(=O)O)c1c(Cl)cnn1O

Result:
[0.46, 0.33]

* * *

tgt: Glutamate NMDA receptor; Grin1/Grin2a (Rattus norvegicus, UniProt P35439+Q00959)
assay.details: Activity at rat recombinant NR1/NR2A receptor expressed in Xenopus oocytes assessed as effect on glutamate-induced current by two voltage clamp electrophysiology
Please provide measured EC50 for the entries that follow.
Just so you know, I need the unit written after the number.

>  <compound>
NC(C(=O)O)c1ccnn1O (racemic)

>  <readout.kind>
EC50

>  <result>
82 µM

$$$$
>  <compound>
CCc1cnn(O)c1C(N)C(=O)O (racemic)

>  <readout.kind>
EC50

>  <result>
47 µM

$$$$
>  <compound>
NC(C(=O)O)c1c(Cl)cnn1O (racemic)

>  <readout.kind>
EC50

>  <result>
565 µM

$$$$

Task: Query (compound): CN[C@H](CC(=O)O)C(=O)O ; field requested: EC50
Result: 75 µM

* * *

Please provide measured pKi for the entries that follow.
tgt: Glutamate NMDA receptor
assay.details: Displacement of [3H]CGP39653 from NMDA receptor in rat cortical synaptosome
Numbers only, as −log10 of the molar value.

# example entries with known answers
>  <molecule>
N[C@H](C(=O)O)c1c(Cl)cnn1O

>  <tgt>
Glutamate NMDA receptor

>  <readout.number>
4.60

$$$$
>  <molecule>
CCc1cnn(O)c1C(N)C(=O)O (racemic)

>  <tgt>
Glutamate NMDA receptor

>  <readout.number>
4.89

$$$$
>  <molecule>
CC(C)c1cnn(O)c1[C@@H](N)C(=O)O

>  <tgt>
Glutamate NMDA receptor

>  <readout.number>
4.89

$$$$
>  <molecule>
CCCc1cnn(O)c1[C@@H](N)C(=O)O

>  <tgt>
Glutamate NMDA receptor

>  <readout.number>
5.16

$$$$

Task: Query (molecule): Cc1cnn(O)c1[C@@H](N)C(=O)O ; field requested: pKi
Result: 5.66

* * *

Please provide measured pEC50 for the entries that follow.
tgt: Glutamate NMDA receptor; Grin1/Grin2c (Rattus norvegicus, UniProt P35439+Q00961)
assay.details: Activity at rat recombinant NR1/NR2C receptor expressed in Xenopus oocytes assessed as effect on glutamate-induced current by two voltage clamp electrophysiology
Answers are plain numbers, as −log10 of the molar value.

Please give pEC50, item by item, for the list that follows.
1. NC(C(=O)O)c1c(Cl)cnn1O (racemic)
2. CCCc1cnn(O)c1C(N)C(=O)O (racemic)
3. CCc1cnn(O)c1C(N)C(=O)O (racemic)
4. CN[C@H](CC(=O)O)C(=O)O
5. NC(C(=O)O)c1ccnn1O (racemic)

Result:
1: 3.59; 2: 3.37; 3: 4.04; 4: 4.64; 5: 4.27

* * *

Please provide measured IC50 for the entries that follow.
assay.details: Displacement of [3H]KAIN from KA receptor in rat cortical synaptosome
Type: tissue-based, Brain

>  <compound.string>
CCc1cnn(O)c1[C@H](N)C(=O)O

>  <readout.kind>
IC50

>  <result>
> 100 µM

$$$$
>  <compound.string>
N[C@@H](C(=O)O)c1ccnn1O

>  <readout.kind>
IC50

>  <result>
> 100 µM

$$$$

Then this compound:
Task: Query (compound): CCCc1cnn(O)c1[C@@H](N)C(=O)O ; field requested: IC50
Result: > 100 µM

* * *

tgt: Ionotropic glutamate receptor NMDA 1/2D (Rattus norvegicus) (UniProt P35439+Q62645)
assay.details: Activity at rat NR1/NR2D receptor expressed in Xenopus oocytes by two voltage clamp electrophysiology relative to glutamate
Type: cell-based
condition.set: Oocyte
readout.kind: Imax
Answers are plain numbers.

# example entries with known answers
>  <compound>
CN[C@H](CC(=O)O)C(=O)O [N-METHYL-D-ASPARTIC ACID (NMDA)]

>  <Imax>
0.8

$$$$
>  <compound>
CCc1cnn(O)c1C(N)C(=O)O (racemic)

>  <Imax>
0.7

$$$$
>  <compound>
CCCc1cnn(O)c1C(N)C(=O)O (racemic)

>  <Imax>
0.37

$$$$

Then this compound:
Task: Query (compound): NC(C(=O)O)c1c(Cl)cnn1O (racemic) ; field requested: Imax
Result: 0.73

* * *

tgt: Glutamate NMDA receptor
assay.details: Displacement of [3H]CGP39653 from NMDA receptor in rat cortical synaptosome
Please provide measured pKi for the entries that follow.
Give bare numbers, as −log10 of the molar value.

>  <compound>
Cc1cnn(O)c1C(N)C(=O)O (racemic)

>  <tgt>
Glutamate NMDA receptor

>  <pKi>
4.66

$$$$

Please give pKi, item by item, for the list that follows.
1. CCc1cnn(O)c1[C@@H](N)C(=O)O
2. NC(C(=O)O)c1ccnn1O (racemic)
3. CC(C)c1cnn(O)c1C(N)C(=O)O (racemic)
4. N[C@@H](C(=O)O)c1ccnn1O
5. CCCc1cnn(O)c1C(N)C(=O)O (racemic)
6. NC(C(=O)O)c1c(Cl)cnn1O (racemic)
7. N[C@@H](C(=O)O)c1c(Cl)cnn1O

Result:
5.36
5.00
4.70
5.66
4.85
5.54
5.54

* * *

Please provide measured IC50 for the entries that follow.
assay.details: Displacement of [3H]AMPA from AMPA receptor in rat cortical synaptosome
Type: tissue-based, Brain

Please give IC50, item by item, for the list that follows.
1. CCc1cnn(O)c1C(N)C(=O)O (racemic)
2. Cc1cnn(O)c1[C@H](N)C(=O)O
3. CC(C)c1cnn(O)c1[C@H](N)C(=O)O

Result:
1. > 100 µM
2. > 100 µM
3. > 100 µM

* * *

tgt: Glutamate NMDA receptor; Grin1/Grin2c (Rattus norvegicus) (UniProt P35439+Q00961)
assay.details: Activity at rat recombinant NR1/NR2C receptor expressed in Xenopus oocytes by two voltage clamp electrophysiology relative to glutamate
Type: cell-based
condition.set: Oocyte
readout.kind: Imax

# example entries with known answers
>  <compound>
CN[C@H](CC(=O)O)C(=O)O [N-METHYL-D-ASPARTIC ACID (NMDA)]

>  <tgt>
Glutamate NMDA receptor; Grin1/Grin2c (Rattus norvegicus) (UniProt P35439+Q00961)

>  <Imax>
0.73

$$$$
>  <compound>
CCCc1cnn(O)c1C(N)C(=O)O (racemic)

>  <tgt>
Glutamate NMDA receptor; Grin1/Grin2c (Rattus norvegicus) (UniProt P35439+Q00961)

>  <Imax>
0.22

$$$$
>  <compound>
NC(C(=O)O)c1ccnn1O (racemic)

>  <tgt>
Glutamate NMDA receptor; Grin1/Grin2c (Rattus norvegicus) (UniProt P35439+Q00961)

>  <Imax>
0.52

$$$$
>  <compound>
NC(C(=O)O)c1c(Cl)cnn1O (racemic)

>  <tgt>
Glutamate NMDA receptor; Grin1/Grin2c (Rattus norvegicus) (UniProt P35439+Q00961)

>  <Imax>
0.55

$$$$

Then this compound:
Task: Query (compound): CCc1cnn(O)c1C(N)C(=O)O (racemic) ; field requested: Imax
Result: 0.52

* * *

tgt: Glutamate NMDA receptor; Grin1/Grin2a (Rattus norvegicus) (UniProt P35439+Q00959)
assay.details: Activity at rat recombinant NR1/NR2A receptor expressed in Xenopus oocytes by two voltage clamp electrophysiology relative to glutamate
Type: cell-based
condition.set: Oocyte
Please provide measured Imax for the entries that follow.
Numbers only.

# example entries with known answers
>  <compound>
CCc1cnn(O)c1C(N)C(=O)O (racemic)

>  <Imax>
0.05

$$$$
>  <compound>
NC(C(=O)O)c1c(Cl)cnn1O (racemic)

>  <Imax>
0.07

$$$$
>  <compound>
NC(C(=O)O)c1ccnn1O (racemic)

>  <Imax>
0.45

$$$$

Task: Query (compound): CN[C@H](CC(=O)O)C(=O)O [N-METHYL-D-ASPARTIC ACID (NMDA)] ; field requested: Imax
Result: 0.9
